tested on: Rattus norvegicus; test: Reduction in paw swelling at 100 mg/kg po dose in rat using adjuvant arthritis test.; type: functional
Listing: Reduction of selected compounds
experimental-readout: Reduction

In [3]: df
Out[3]:
                                    compound  experimental_readout  result
 0            NC(=O)Cc1ccccc1Oc1ccc(Cl)cc1Cl             Reduction      33
 1          CCc1ccc(Oc2ccccc2CC(=O)O)c(Cl)c1             Reduction      32
 2            O=C(O)Cc1ccccc1Oc1cccc(Cl)c1Cl             Reduction      51
 3     Cc1ccc(Oc2cc(C)c(C)cc2Cl)c(CC(=O)O)c1             Reduction      46
 4         Cc1cc(Cl)ccc1Oc1ccc(Cl)cc1CC(=O)O             Reduction       7
 5        Cc1ccc(Oc2c(C)cccc2Cl)c(CC(=O)O)c1             Reduction      26
 6        Cc1ccc(Oc2ccc(Cl)cc2O)c(CC(=O)O)c1             Reduction      26
 7      CCCc1ccc(Oc2ccc(C)cc2CC(=O)O)c(Cl)c1             Reduction      27
 8            Cc1ccc(Oc2ccccc2CC(=O)O)c(C)c1             Reduction      20
 9       Cc1ccc(Oc2ccc(Cl)cc2Cl)c(CC(=O)O)c1             Reduction      29
10     Cc1cc(Oc2ccc(Cl)cc2CC(=O)O)c(Cl)cc1Cl             Reduction      40
11     Cc1ccc(Oc2ccccc2C(F)(F)F)c(CC(=O)O)c1             Reduction       0
12  Cc1ccc(Oc2cc(C)c(Cl)c(C)c2Cl)c(CC(=O)O)c1             Reduction      20
13         COc1cc(Cl)ccc1Oc1ccc(C)cc1CC(=O)O             Reduction      23
14   CN(C)c1ccc(Oc2ccc(Cl)cc2Cl)c(CC(=O)O)c1             Reduction       5
15  CCC(C)c1ccc(Oc2ccc(C)cc2CC(=O)O)c(Cl)c1 (stereo unspecified)             Reduction      42
16              O=C(O)Cc1cc(Cl)ccc1Oc1ccccc1             Reduction       0
17      COc1ccc(Oc2ccc(Cl)cc2CC(=O)O)c(Cl)c1             Reduction      18
18     Cc1ccc(Oc2cc(C)c(Cl)cc2C)c(CC(=O)O)c1             Reduction      10
19        Cc1ccc(Oc2cc(Cl)ccc2C)c(CC(=O)O)c1             Reduction      15
20   CCCCCCc1ccc(Oc2ccc(C)cc2CC(=O)O)c(Cl)c1             Reduction       5
21                OCCc1ccccc1Oc1ccc(Cl)cc1Cl             Reduction      32
22    CCCCCc1ccc(Oc2ccc(C)cc2CC(=O)O)c(Cl)c1             Reduction      23
23        Cc1ccc(Oc2ccc(N)cc2CC(=O)O)c(Cl)c1             Reduction       3
24            Nc1ccc(Oc2ccccc2CC(=O)O)c(N)c1             Reduction      0%
25      Cc1cc(Cl)c(Oc2ccc(Cl)cc2CC(=O)O)cc1C             Reduction      22

###

tested on: Rattus norvegicus; test: Reduction in paw swelling at 100 mg/kg po dose in rat using adjuvant arthritis test.; assay type: functional
experimental-readout: Reduction

In [3]: df
Out[3]:
                                smiles_text  measured_number
0  Cc1ccc(Oc2cc(C(F)(F)F)ccc2Cl)c(CC(=O)O)c1               29
1                  O=C(O)Cc1ccccc1Oc1ccccc1                0
2          O=C(O)Cc1ccccc1Oc1ccccc1C(F)(F)F                0
3    CCCCOc1ccc(CC(=O)O)c(Oc2ccc(C)cc2Cl)c1                0
4     Cc1ccc(Oc2c(C)cc(Cl)cc2C)c(CC(=O)O)c1               14
5     CCCCc1ccc(Oc2ccc(C)cc2CC(=O)O)c(Cl)c1               25
6    Cc1ccc(Oc2c(C)cc(Cl)cc2Cl)c(CC(=O)O)c1               23
7   Cc1ccc(Oc2cc(C)c(Cl)c(C)c2)c(CC(=O)O)c1                5
8         Cc1ccc(Oc2ccc(Cl)cc2)c(CC(=O)O)c1                9
9             O=C(O)c1ccccc1Oc1ccc(Cl)cc1Cl               18

###

Listing: Reduction of selected compounds
tested on: Rattus norvegicus; test: Reduction in paw swelling at 100 mg/kg po dose in rat using adjuvant arthritis test.; format: functional
experimental-readout: Reduction (%)

                                smiles_text  measured_number
0  O=C(O)Cc1ccccc1Oc1ccc(Cl)cc1[N+](=O)[O-]                4
1  CCCCCCCCc1ccc(Oc2ccc(C)cc2CC(=O)O)c(Cl)c1               13
2  O=C(O)Cc1cc([N+](=O)[O-])c([N+](=O)[O-])cc1Oc1ccc(Cl)cc1Cl                8
3  CCCCCCCCCCCCc1ccc(Oc2ccc(C)cc2CC(=O)O)c(Cl)c1               26
4           O=C(Cc1ccccc1Oc1ccc(Cl)cc1Cl)NO               28
5  O=C(O)Cc1cc([N+](=O)[O-])ccc1Oc1ccc(Cl)cc1Cl                9

###

system: Rattus norvegicus; test: Reduction in paw swelling at 100 mg/kg po dose in rat using adjuvant arthritis test.; type: functional
Listing: Reduction of selected compounds
experimental-readout: Reduction (%)

In [3]: df
Out[3]:
                                smiles_text      tested_system  reading_unit  measured_number
0  CCCCCCCCCc1ccc(Oc2ccc(C)cc2CC(=O)O)c(Cl)c1  Rattus norvegicus             %                8
1  CCCCCCCCCCc1ccc(Oc2ccc(C)cc2CC(=O)O)c(Cl)c1  Rattus norvegicus             %                9
2  O=C(O)Cc1ccccc1Oc1ccc([N+](=O)[O-])cc1[N+](=O)[O-]  Rattus norvegicus             %                0

###

Listing: Reduction of selected molecules
test system: Rattus norvegicus; assay: Reduction in paw swelling at 100 mg/kg po dose in rat using adjuvant arthritis test.; assay type: functional
experimental-readout: Reduction

>>> print(df.to_string())
                          smiles_text  result
0    O=C(O)Cc1ccccc1Oc1ccc(Cl)c(Cl)c1      20
1      O=C(O)Cc1ccccc1Oc1c(Cl)cccc1Cl      20
2  Cc1ccc(Oc2cccc(Cl)c2C)c(CC(=O)O)c1      20
